Values compiled from PubChem BioAssay.

Kindly state inhibition for each of the entries shown.
experiment: 384-well plate pilot, post-Golgi transport modulator project, inhibition of yeast transport mutant growth (AID 636); details: absorbance 615 nm, about 18 h, stronger effect = higher value
Give bare numbers, in %.

// each compound listed below needs its inhibition
1. Cc1cccc(NS(=O)(=O)c2cc(C(=O)OCC(=O)Nc3cc(C)on3)ccc2C)c1
2. Cc1ccc(S(=O)(=O)N(CC(=O)N2CCC(C(N)=O)CC2)c2cccc(C(F)(F)F)c2)cc1
3. CNC(=O)c1ccc(N(Cc2ccccc2C)S(C)(=O)=O)cc1
4. O=c1c2c3c(sc2nc2sc(C4CC4)nn12)CCCC3
5. COCCn1c(SCC(=O)Nc2nnc(C)s2)nnc1-c1ccncc1
6. O=C(NCCO)c1scc2c1OCCO2
7. Cc1ccccc1NC(=O)c1c(F)c(F)c(F)c(F)c1F
8. COc1ccc(Cn2nnnc2C(c2cccs2)N2CCOCC2)cc1 (configuration not stated)

1. -2.8
2. -3.33
3. -3.87
4. -0.39
5. -5.95
6. -5.73
7. -5.13
8. 3.16

// each compound listed below needs its inhibition
1. CCc1nc(N)c(C#N)c(-c2ccncc2)c1C
2. COc1ccc2ccccc2c1CN1CCN(C)CC1
3. COc1ccc(C(=O)N2CCN(c3nc4cc(C)ccc4cc3C#N)CC2)c(OC)c1
4. Cc1ncoc1C(=O)Nc1cccc(Cl)c1C

1: -4.27; 2: 1.43; 3: -2.73; 4: -3.78

----------
test: reversal of MRP1-mediated doxorubicin resistance, pilot screen, H69AR cells, doxorubicin co-treatment (AID 601); conditions: H69AR cells, CellTiter-Glo, 72 h; compound alone cytotoxicity; at 10 µM
Square brackets hold non-standard residues; d marks the D form. Peptide text beside a SMILES is read from it. * marks the point of attachment. ξ: configuration not given here. Cbz = O=C(OCc1ccccc1)*; ξK = NCCCCC(N)C(=O)O
// returns 0 unless viability is strictly below 90%, in which case 1

Does the reported viability of the following molecule sit strictly below 90%? CC(C)[C@H](NC(=O)OC(C)(C)C)c1nnc(SCc2cccc(F)c2)o1
0

Does the reported viability of the following molecule sit strictly below 90%? COc1ccc(S(=O)(=O)CCC(=O)O)cc1
0

Does the reported viability of the following molecule sit strictly below 90%? O=S(=O)(NCC(c1cccnc1)N1CCN(c2ccccc2)CC1)c1cc(F)ccc1F (stereo not given)
1

Does the reported viability of the following molecule sit strictly below 90%? O=C(CN1C(=O)NC2(CCCCCC2)C1=O)N1CCC(Cc2ccccc2)CC1
1

Does the reported viability of the following molecule sit strictly below 90%? CC(C(=O)N1CCOCC1)N1c2cccc3cccc(c23)S1(=O)=O (stereo not given)
0

Does the reported viability of the following molecule sit strictly below 90%? O=C(CC1CCS(=O)(=O)C1)Nc1ccc[nH]c1=O (stereo not given)
0

Does the reported viability of the following molecule sit strictly below 90%? CCOC(=O)C1C(=O)N(C(=O)c2ccc(OC)cc2)CC1c1ccccc1 (stereo not given)
1

Does the reported viability of the following molecule sit strictly below 90%? Cc1ccc(CCNC(=O)C2CCN(S(=O)(=O)c3ccc4c(c3)CCC(=O)N4)CC2)cc1
1

Does the reported viability of the following molecule sit strictly below 90%? COC(=O)C(CCCCNC(=O)OCc1ccccc1)NC(=O)CN (stereo not given) (H-Gly-[ξK](Cbz)-OMe)
0

Does the reported viability of the following molecule sit strictly below 90%? Cn1c(=O)c2c(nc(Oc3ccc4c(c3)OCO4)n2Cc2ccc(F)cc2)n(C)c1=O
1

Does the reported viability of the following molecule sit strictly below 90%? Cc1occc1-c1nnc(SCC(=O)c2ccc(F)cc2)n1Cc1ccco1
1

Does the reported viability of the following molecule sit strictly below 90%? Cc1ccc(-n2c(=O)c3sccc3n(CC(=O)NCc3ccco3)c2=O)cc1
0

Does the reported viability of the following molecule sit strictly below 90%? CCOc1ccccc1C1NC(=O)NC(C)=C1C(=O)OC1CCCC1C (stereo not given)
1

Does the reported viability of the following molecule sit strictly below 90%? CC(=O)N1CCc2cc(S(=O)(=O)NC(C(=O)NCc3ccccc3)C(C)C)ccc21 (stereo not given)
0

Does the reported viability of the following molecule sit strictly below 90%? O=C(CN1C(=O)CCSc2ccccc21)Nc1ccc(F)cc1
0

Does the reported viability of the following molecule sit strictly below 90%? CCCCc1n[nH]c2c1C(=O)CC(C)(C)C2
0

Does the reported viability of the following molecule sit strictly below 90%? O=C(Nc1cccnc1)c1ccc2c(c1)C(=O)N(Cc1cccnc1)C2=O
0

Does the reported viability of the following molecule sit strictly below 90%? Cc1ccc2[nH]c(=O)c(CN(CCCN3CCOCC3)C(=O)Nc3cccc(Cl)c3)cc2c1
1

----------
Kindly state viability for each of the entries shown.
experiment: HUVEC growth inhibition – cell-based, human, primary screen (AID 575); conditions: HUVEC proliferation, CellTiter-Glo luminescence, 72 h; at 10 µM; stronger effect = lower value;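 note: 100% = median of untreated cell wells with 0.1% DMSO on each plate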
Answers are plain numbers, in %.

Completed entries (count: 5):
>  <COMPOUND>
CCCCOc1ccc(CSc2n[nH]c(C)n2)cc1

>  <UNIT>
%

>  <viability>
103

$$$$
>  <COMPOUND>
CCOC(=O)CNC(=O)Nc1ccccc1C(=O)OC

>  <UNIT>
%

>  <viability>
96.7

$$$$
>  <COMPOUND>
CC1Cc2nc(SCC(=O)Nc3ccccc3F)n(C)c(=O)c2S1 (stereo not drawn)

>  <UNIT>
%

>  <viability>
92.4

$$$$
>  <COMPOUND>
COc1ccccc1Oc1coc2c(CN3CCN(C)CC3)c(O)ccc2c1=O

>  <UNIT>
%

>  <viability>
96.1

$$$$
>  <COMPOUND>
Cc1ccc(NC2c3ncccc3C(=O)N2C2CCCCC2)cc1C (stereo not drawn)

>  <UNIT>
%

>  <viability>
91.7

$$$$

// each compound listed below needs its viability
1. COCCOC(=O)C1=C(N)OC2=C(C(=O)CC(C)(C)C2)C1c1cccnc1 (stereo not drawn)
2. CCSc1nnc(NC(=O)c2nn(C(C)C)c(=O)c3ccccc23)s1
3. COc1ccc(C2=NO[C@@H]3C(=O)N(c4ccc5c(c4)OCCO5)C(=O)[C@H]23)cc1OC
4. CSC1=C(C#N)C(c2ccc(Cl)cc2)C2=C(CC(C)(C)CC2=O)N1 (stereo not drawn)
5. CC(C)c1ccc(S(=O)(=O)N2CCN(CCC(=O)Nc3ccc(N(C)C)cc3)CC2)cc1

1. 101
2. 81.5
3. 81.7
4. 72.1
5. 66.8

----------
test: 384-well plate pilot, post-Golgi transport modulator project, inhibition of yeast transport mutant growth (AID 636); settings: absorbance 615 nm, about 18 h, stronger effect = higher value
Kindly state inhibition for each of the entries shown.
Answers are plain numbers, in %.

Completed entries (count: 5):
>  <COMPOUND>
COc1ccc(OC)c(S(=O)(=O)N2CCC(C(=O)NCC3CCCO3)CC2)c1 (stereo unspecified)

>  <OBSERVED_PROPERTY>
inhibition

>  <REPORTED_MEASUREMENT>
-6.27

$$$$
>  <COMPOUND>
O=C1CS/C(=N\C(=O)N2c3ccccc3Sc3ccccc32)N1

>  <OBSERVED_PROPERTY>
inhibition

>  <REPORTED_MEASUREMENT>
-7.07

$$$$
>  <COMPOUND>
CN(C)c1nc(SCCOC(=O)c2ccccc2)nc(N(C)C)n1

>  <OBSERVED_PROPERTY>
inhibition

>  <REPORTED_MEASUREMENT>
-4.47

$$$$
>  <COMPOUND>
COc1ccccc1-n1c(C)nnc1SCC(N)=O

>  <OBSERVED_PROPERTY>
inhibition

>  <REPORTED_MEASUREMENT>
-5.33

$$$$
>  <COMPOUND>
O=C1CCCCCN1CSc1nc2ccccc2s1

>  <OBSERVED_PROPERTY>
inhibition

>  <REPORTED_MEASUREMENT>
-5.45

$$$$

// each compound listed below needs its inhibition
1. Cc1cc2nc3c(nc2cc1C)C1(C(=O)O)CCC3(C)C1(C)C (stereo unspecified)
2. CCOc1ccc(NC(=O)CSc2nnc(Cc3cccn3C)n2-c2ccc(OC)cc2)cc1
3. COC(=O)C1C(=O)c2c([nH]c(C(=O)OCCOC(C)C)c2C)CC1C (stereo unspecified)
4. Cc1cc(OC(=O)N2CCOCC2)cc(C)c1Cl

1: 0; 2: -1.49; 3: -2.11; 4: -3.55

// each compound listed below needs its inhibition
1. CCOP(=O)(c1ccc(N(C)C)cc1)C(O)c1cc(OC)c(OC)c(OC)c1 (stereo unspecified)
2. COc1cc(C)nc(OCCNC(=O)COc2ccc(Cl)cc2C)n1
3. CCc1nc(C)c(-c2ccccc2)c(=O)[nH]1
4. c1ccc(-n2c(Sc3cnccn3)nnc2-c2cccs2)cc1
5. CCOC(=O)c1[nH]c2ccc(Br)cc2c1NC(=O)CNC
6. COc1cc2c(c(OC)c1)C(c1ccncc1)CC(=O)N2 (stereo unspecified)
7. O=C(Nc1ccc(N2CCOCC2)cc1)c1cc2ccccc2o1
8. Cc1ccc(Nc2cc(C)nc3ncnn23)c(Cl)c1

1. -3.68
2. -0.93
3. -3.2
4. -5.41
5. -2.37
6. 1.73
7. -0.26
8. -3.33

// each compound listed below needs its inhibition
1. COc1ccc2[nH]c(=O)c(CN(C(=O)c3cccnc3)c3ccccc3OC)cc2c1
2. CC1CCc2cc(F)cc3c(O)c(C(=O)NCC4CCCO4)c(=O)n1c23 (stereo unspecified)
3. C=CCSc1nnc(-c2ccccc2NC(C)=O)c(=O)[nH]1
4. Clc1ccc(Cl)c(-c2ccc(/C=N/c3ncn[nH]3)o2)c1
5. CN(C)/C=N/c1ncnc2c1cnn2-c1ccc(C(F)(F)F)cn1
6. O=C1Nc2ccccc2OC1CC(=O)N1CCCC1 (stereo unspecified)

1: -6; 2: 0.66; 3: -3.03; 4: -6.8; 5: -4.42; 6: -2.53

// each compound listed below needs its inhibition
1. CCCc1cn(S(=O)(=O)c2ccc(OC)cc2OC)nc1N
2. O=C(c1ccco1)N1CCN(C(=O)c2cc3c(s2)-c2ccccc2OC3)CC1
3. O=S(=O)(NCC1CCCO1)c1cc(Cl)ccc1Br (stereo unspecified)
4. COCCCNC(=O)c1ccc2c(c1)OCO2
5. CC(=O)c1c(C)nn(CC(O)COc2ccc3c(c2)CCC3)c1C (stereo unspecified)

1: -7.2; 2: 0.13; 3: 3.25; 4: -2.76; 5: 1.33
